molecular target: T1, calmodulin (calcium-loaded: holo-CaM) (UniProt P0DP23); assay: other fluorescence titration + ITC; conditions: both partners purified
T1 construct: also called apo-CaM (without calcium)
MEASURED_METRIC: pKd
FYI, pKd means -log10 of a concentration in mol per litre.

# input Fill in: pKd of ASAHWGQEALQGAQAVAAAQELVHAIALMTQ (also called TAMRA-P454 R12E) [P454 R12E peptide (P454 with R461E and R474E)] is ___
# output 4.64

Source listed as paper PMC8097335.
